Test: AUC (0 to infinity) in C57BL/6 mouse at 30 mg/kg, iv administered as single dose measured up to 24 hrs by LC-MS/MS analysis
Assay type: ADME, organism-based
Set-up: dose 30 mg/kg, time infinity, route intravenous
Details: in vivo
measuredMetric: AUC(0-inf)
Please answer in the form of a number followed by its unit of measurement.

Item under review: Cl.NC[C@H]1OB(O)c2c3c(cc(Cl)c21)OCCO3 . Reported AUC(0-inf)?
76.3 µg·h/mL

====

Listing of entries alongside the reported ED99.
System: Mycobacterium tuberculosis
Assay: Antimicrobial activity against Mycobacterium tuberculosis H37Rv infected in C57BL/6J mouse assessed as 2 log reduction in bacterial load in lungs administered qd for 8 consecutive days starting on day 1 post infection measured 24 hrs post last dose
Assay type: functional
Value expressed in mg/kg; do not type the unit.

Record excerpt, results attached:
* Cl.NC[C@H]1OB(O)c2c(OCCO)ccc(Cl)c21 | 0.4
* COc1ccc(Br)c2c1B(O)O[C@@H]2CN.Cl | 3.8

Next up:
Form entry - test system: Mycobacterium tuberculosis; read-out: ED99; molecule: Cl.NC[C@H]1OB(O)c2c3c(cc(Cl)c21)OCCO3
70
